Here the recorded pEC50 is given for each entry.
- studySystem: CD80-CD28 interaction (Homo sapiens, UniProt P33681)
- testProtocol: Homogenous Time Resolved Fluorescence (HTRF) assay, cell free
- Assay type: binding
- conditionDescription: cell free HTRF assay; concentration series 100 μM-1.7 nM; 4 hours at room temperature; read-out: Activity (EC50 in the HTRF assay)
pEC50: −log10 of the molar value.

Below, each entry is followed by its recorded pEC50 result.
compound	measureName	value
O=C(NCCc1cnc[nH]1)Nc1ccc(-n2[nH]c3c(nnc4ccccc43)c2=O)cc1	pEC50	> 6.00
CN(C)CC(C)(C)CNC(=O)c1ccc(-n2[nH]c3c(nnc4c(F)cccc43)c2=O)cc1	pEC50	> 6.00
O=C(Nc1ccc(-n2[nH]c3c(nnc4ccccc43)c2=O)cc1)NC1CCCC1OCc1ccccc1 (centres unmarked)	pEC50	< 5.00
O=C(NCCSCc1c(F)cccc1Cl)c1ccc(-n2[nH]c3c(nnc4ccccc43)c2=O)cc1	pEC50	< 5.00
CN(C)CCCNC(=O)c1ccc(-n2[nH]c3c(nnc4c(Cl)cccc43)c2=O)cc1	pEC50	> 6.00
CC=CCNC(=O)c1ccc(-n2[nH]c3c(nnc4c(F)cccc43)c2=O)cc1	pEC50	> 6.00
CCOC(=O)C1CCCC1NC(=O)c1ccc(-n2[nH]c3c(nnc4ccccc43)c2=O)cc1 (centres unmarked)	pEC50	5.00 to 6.00

Attention now turns to another entry.
Form field pEC50, entry NC1CCC(NC(=O)c2ccc(-n3[nH]c4c(nnc5cccc(F)c54)c3=O)cc2)CC1 (centres unmarked) : > 6.00

====

- studySystem: CD80-CD28 interaction (Homo sapiens, UniProt P33681)
- Sequence (P33681 35-242 limits assumed): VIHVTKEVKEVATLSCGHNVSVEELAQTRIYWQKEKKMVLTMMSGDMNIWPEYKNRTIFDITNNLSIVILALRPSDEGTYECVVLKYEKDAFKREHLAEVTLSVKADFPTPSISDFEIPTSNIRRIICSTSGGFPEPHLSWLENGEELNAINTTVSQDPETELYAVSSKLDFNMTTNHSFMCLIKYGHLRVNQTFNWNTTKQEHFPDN
- testProtocol: Homogenous Time Resolved Fluorescence (HTRF) assay, cell free
- Format: binding
- conditionDescription: cell-free HTRF, compound concentration series 100 μM-1.7 nM, 4 hours at room temperature; read-out: Activity (EC50 in the HTRF assay)
pEC50: −log10 of the molar value.
Quick reference: pEC50 of the listed items.

The following molecules have reported results that may help.
molecule	measureName	value
CC(CCCC(C)(C)O)NC(=O)c1ccc(-n2[nH]c3c(nnc4ccccc43)c2=O)cc1 (stereo not shown)	pEC50	5.00 to 6.00
O=C(Nc1ccc(N2CCOCC2)cc1)c1ccc(-n2[nH]c3c(nnc4ccccc43)c2=O)cc1	pEC50	5.00 to 6.00
CCOC(=O)CCC(NC(=O)c1ccc(-n2[nH]c3c(nnc4ccccc43)c2=O)cc1)C(=O)OCC (stereo not shown)	pEC50	5.00 to 6.00
COC(=O)CNC(=O)c1ccc(-n2[nH]c3c(nnc4ccccc43)c2=O)cc1	pEC50	5.00 to 6.00
O=C(Nc1ccc(-n2[nH]c3c(nnc4ccccc43)c2=O)cc1)NC1CCOC1=O (stereo not shown) [Example 166]	pEC50	5.00 to 6.00

Value (pEC50, CD80-CD28 interaction (Homo sapiens, UniProt P33681)) for record O=C(NCCCn1ccnc1)c1ccc(-n2[nH]c3c(nnc4ccccc43)c2=O)cc1 = > 6.00

# value of pEC50, CD80-CD28 interaction (Homo sapiens, UniProt P33681), item O=C(NCc1ccc(F)cc1)Nc1ccc(-n2[nH]c3c(nnc4ccccc43)c2=O)cc1 = < 5.00

Measured pEC50 (CD80-CD28 interaction (Homo sapiens, UniProt P33681)), entry C=C(C)CNC(=O)Nc1ccc(-n2[nH]c3c(nnc4ccccc43)c2=O)cc1 : 5.00 to 6.00

Tested on CD80-CD28 interaction (Homo sapiens, UniProt P33681): COc1ccc2[nH]cc(CCNC(=O)c3ccc(-n4[nH]c5c(nnc6ccccc65)c4=O)cc3)c2c1 . Observed pEC50: 5.00 to 6.00

Result for CC(C)(C)OC(=O)NCCCCNC(=O)c1ccc(-n2[nH]c3c(nnc4ccccc43)c2=O)cc1 , tested on CD80-CD28 interaction (Homo sapiens, UniProt P33681), pEC50: > 6.00

Form field pEC50 for item O=C(NCCO)c1ccc(-n2[nH]c3c(nnc4ccccc43)c2=O)cc1 on CD80-CD28 interaction (Homo sapiens, UniProt P33681): > 6.00

Record for CC(C)(C)OC(=O)N1CCN(CCNC(=O)c2ccc(-n3[nH]c4c(nnc5ccccc54)c3=O)cc2)CC1 under target or system CD80-CD28 interaction (Homo sapiens, UniProt P33681): pEC50 reported as > 6.00

The molecule CC1(C)CC(NC(=O)c2ccc(-n3[nH]c4c(nnc5ccccc54)c3=O)cc2)CC(C)(C)N1 on CD80-CD28 interaction (Homo sapiens, UniProt P33681): pEC50 was > 6.00

Measured pEC50 (CD80-CD28 interaction (Homo sapiens, UniProt P33681)), entry O=C(NCCc1cnc[nH]1)c1ccc(-n2[nH]c3c(nnc4ccccc43)c2=O)cc1 : 5.00 to 6.00

Response field pEC50 (CD80-CD28 interaction (Homo sapiens, UniProt P33681)) for item O=C(NCC1CCCCCC1)c1ccc(-n2[nH]c3c(nnc4ccccc43)c2=O)cc1 : < 5.00

Let me check: CSCCCNC(=O)Nc1ccc(-n2[nH]c3c(nnc4ccccc43)c2=O)cc1 , system CD80-CD28 interaction (Homo sapiens, UniProt P33681), measured pEC50 is 5.00 to 6.00

====

Measured EC50, listed per entry.
- studySystem: CD80-CD28 interaction (Homo sapiens, UniProt P33681)
- Sequence (P33681 35-242 limits assumed): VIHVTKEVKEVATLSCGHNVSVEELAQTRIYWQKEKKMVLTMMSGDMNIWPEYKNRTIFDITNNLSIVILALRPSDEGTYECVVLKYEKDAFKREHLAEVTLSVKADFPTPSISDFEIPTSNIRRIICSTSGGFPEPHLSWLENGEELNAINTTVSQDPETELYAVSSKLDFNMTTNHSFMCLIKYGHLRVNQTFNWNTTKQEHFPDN
- testProtocol: Homogenous Time Resolved Fluorescence (HTRF) assay, cell free
- Format: binding
- conditionDescription: cell free HTRF assay; concentration series 100 μM-1.7 nM; 4 hours at room temperature; read-out: Activity (EC50 in the HTRF assay)

structureNotation	EC50
CC(C)CNC(=O)c1ccc(-n2[nH]c3c(nnc4ccccc43)c2=O)cc1	1 to 10 µM
CC(C)(C)OC(=O)N1CCC(CNC(=O)Nc2ccc(-n3[nH]c4c(nnc5ccccc54)c3=O)cc2)CC1	> 10 µM

Quick note, EC50 for O=C(NCCCCNC(=O)c1ccc(-n2[nH]c3c(nnc4ccccc43)c2=O)cc1)OCc1ccccc1 landed at < 1 µM

EC50 reading for O=C(NCCc1c(F)cccc1Cl)c1ccc(-n2[nH]c3c(nnc4c(F)cccc43)c2=O)cc1 : 1 to 10 µM

====

- studySystem: CD80-CD28 interaction (Homo sapiens, UniProt P33681)
- Sequence (P33681 35-242 limits assumed): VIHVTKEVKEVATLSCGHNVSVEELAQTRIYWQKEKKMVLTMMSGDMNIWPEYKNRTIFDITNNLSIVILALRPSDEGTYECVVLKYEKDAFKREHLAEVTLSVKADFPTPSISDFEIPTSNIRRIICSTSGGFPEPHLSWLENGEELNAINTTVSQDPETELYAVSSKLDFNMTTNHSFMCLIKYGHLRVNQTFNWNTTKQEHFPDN
- testProtocol: Homogenous Time Resolved Fluorescence (HTRF) assay, cell free
- Type: binding
- conditionDescription: cell-free HTRF, compound concentration series 100 μM-1.7 nM, 4 hours at room temperature; read-out: Activity (EC50 in the HTRF assay)
measureName: EC50

Known EC50 results, listed for orientation:
compound	EC50
O=C(NCCN1CCOCC1)Nc1ccc(-n2[nH]c3c(nnc4ccccc43)c2=O)cc1 [Example 132]	< 1000 nM
O=C(NCCOCCO)c1ccc(-n2[nH]c3c(nnc4ccccc43)c2=O)cc1 [Example 50]	1000 to 10000 nM
CC(C)(C)CCNC(=O)c1ccc(-n2[nH]c3c(nnc4ccccc43)c2=O)cc1 [Example 85]	1000 to 10000 nM
CC(NC(=O)c1ccc(-n2[nH]c3c(nnc4ccccc43)c2=O)cc1)C1CCCCC1 (centres unmarked) [Example 75]	1000 to 10000 nM
O=C(NCc1ccc(OC(F)(F)F)cc1)c1ccc(-n2[nH]c3c(nnc4ccccc43)c2=O)cc1 [Example 64]	1000 to 10000 nM
O=C(NCCN1CCNCC1)c1ccc(-n2[nH]c3c(nnc4ccccc43)c2=O)cc1 [Example 102]	1000 to 10000 nM
O=C(NC1CCCC1OCc1ccccc1)c1ccc(-n2[nH]c3c(nnc4ccccc43)c2=O)cc1 (centres unmarked) [Example 44]	> 10000 nM

Consider O=C(NCCN1CCOCC1)c1ccc(-n2[nH]c3c(nnc4ccccc43)c2=O)cc1 [Example 12] . Its measured EC50 is < 1000 nM
